- Tested system: NS3 (West Nile virus, UniProt K4FQI5)
- Protocol summary: Functional biochemical assay to identify treatments for viral infectious disease that targets West Nile NS2B-NS3 protease. Utilizing a direct enzyme activity measurement method, reading the fluorescence intensity is used to characterize the relative potency of inhibitors as IC50.
Parameter measured: IC50 (µM)
Unit µM implied. Number only.

Here are 6 molecules together with their reported answers.
O=C(Nc1ccc2c(c1)CNC2)c1cc(F)cc(C2=CCOCC2)c1 :: 9.32
O=C(NCc1cccnc1)[C@H](Nc1ccc2c(c1)CNC2)c1cc(Cl)cc2[nH]ncc12 :: 1.37
O=C(NC1CCOCC1)[C@H](Nc1ccc2c(c1)CNC2)c1cc(Cl)cc(C2CC2)c1 :: 0.186
Cc1cc(C(=O)Nc2ccc3c(c2)CNC3)cc2nc[nH]c12 :: 12.5
C=CC[C@H]1NCc2cc(NC(=O)c3cc(F)cc4c3CC(=O)N4)ccc21 :: 1.92
CCCCNC(=O)[C@H](Nc1ccc2c(c1)CNC2)c1cc(Cl)cc(C2CC2)c1 :: 0.295

We next turn to a different molecule, shown below.
Enquiry: Form field: IC50 recorded for O=C(Nc1ccc2c(c1)CNC2)c1cncc2[nH]ncc12 with NS3 (West Nile virus, UniProt K4FQI5) (enter value)
Return: 20.8

====

- Tested system: UniProtKB K4FQI5
- Sequence (K4FQI5 whole entry): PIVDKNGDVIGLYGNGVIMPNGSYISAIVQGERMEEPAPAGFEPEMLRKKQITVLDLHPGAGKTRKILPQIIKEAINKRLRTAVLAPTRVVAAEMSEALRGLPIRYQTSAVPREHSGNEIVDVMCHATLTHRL
- Protocol summary: Functional biochemical assay to identify treatments for viral infectious disease that targets West Nile NS2B-NS3 protease. Utilizing a direct enzyme activity measurement method, reading the fluorescence intensity is used to characterize the relative potency of inhibitors as IC50.
- Design: species or system NY-99
pIC50: −log10 of the molar value.
Is pIC50 at least 5? Then YES. If not, NO.

Cc1[nH]c2ccccc2c1CN1CCC(c2c[nH]c3ncccc23)CC1 :: NO
C[C@@H](Oc1ccc(S(=O)(=O)Nc2ccc(Cl)cc2C(=O)O)cc1)c1ccccc1F :: NO
N#C[C@H](Nc1ccc2c(c1)CNC2)c1cc(Cl)cc2[nH]ncc12 :: NO

Enquiry: Given NCc1cccc(NC(=O)c2cc(Cl)cc(NC(=O)OCc3ccccc3)c2)c1 , state whether its pIC50 is at least 5.
Return: NO

Enquiry: State whether the measured pIC50 reaches 5, counting equality as reaching it, for NCc1cccc([C@H]2C[C@@H]2c2cc(Cl)cc(NC(=O)OCc3ccccc3)c2)c1
Return: NO

Enquiry: Given the entry CCSc1ccc(Cl)cc1C(=O)Nc1ccc2c(c1)CNC2 , answer whether its pIC50 meets or surpasses 5.
Return: NO

Enquiry: Decide: is the reported value of pIC50 for CCOC(=O)c1ncoc1CNC(=O)[C@H](Nc1ccc2c(c1)CNC2)c1cc(Cl)cc(C2CC2)c1 equal to or greater than 5?
Return: YES

Enquiry: Check if pIC50 >= 5 (inclusive). Item: CCNC(=O)Nc1cc(Cl)cc(C(=O)Nc2cc(C)cc(CN)c2)c1
Return: NO

Enquiry: Determine whether measured pIC50 meets or exceeds 5 for O=C(Nc1ccc2c(c1)CN[C@H]2[C@H](O)CO)c1cc(F)cc2[nH]ncc12
Return: YES

Enquiry: Exam item: decide whether the reported pIC50 for O=C(Nc1ccc2c(c1)CNC2)c1cc(F)cc(-c2c[nH]c(=O)c(F)c2)c1 is at least 5.
Return: YES

Enquiry: Entry O=C1Cc2cc(C(=O)Nc3ccc4c(c3)CNC4)ccc2N1 : is its pIC50 no less than 5?
Return: NO

====

- Tested system: NS3 (West Nile virus)
- Protocol summary: Functional biochemical assay to identify treatments for viral infectious disease that targets West Nile NS2B-NS3 protease. Utilizing a direct enzyme activity measurement method, reading the fluorescence intensity is used to characterize the relative potency of inhibitors as IC50.
- Design: species or system NY-99
pIC50: −log10 of the molar value.
1.0 means recorded pIC50 is 5 or above; 0.0 means it is below 5.

O=C(Nc1ccccc1)Oc1ccccc1 [PHENYL PHENYLCARBAMATE] :: 0.0
CCc1cnccc1-c1nc2c(C(=O)Nc3ccc4c(c3)CNC4)cc(Cl)cc2[nH]1 :: 0.0

Enquiry: Does O=C(Nc1ccc2c(c1)CNC2)c1cc(Br)cc2c1OCO2 have a reported pIC50 of at least 5?
Return: 0.0

Enquiry: # bool: pIC50 of O=C(Nc1ccc2c(c1)CNC2)c1cc(Cl)cc2[nH]c(-c3ccc(F)cc3O)nc12 >= 5
Return: 0.0

Enquiry: Would you say CCCC[C@H](NC(C)=O)C(=O)N[C@H](C(=O)NCc1ccc(C(N)=O)cc1)c1ccc(OCc2ccccc2)cc1 shows pIC50 at minimum 5?
Return: 0.0

Enquiry: Is reported pIC50 greater than or equal to 5 here: O=C(Nc1ccc2c(c1)CNCC2)c1cc(Cl)cc2[nH]ncc12
Return: 0.0

Enquiry: # bool: pIC50 of Cn1cc2c(C(=O)Nc3ccc4c(c3)CNC4)cc(Cl)cc2n1 >= 5
Return: 0.0

Enquiry: Tell me whether pIC50 is at least 5 here: O=C(Nc1cnc2c(c1)CNCC2)c1cc(Cl)cc2[nH]ncc12
Return: 0.0

Enquiry: Is reported pIC50 greater than or equal to 5 here: O=C1Cc2c(cccc2C(=O)Nc2ccc3c(c2)CNC3)N1
Return: 1.0

====

Known pIC50 of a selection of compounds
- Tested system: UniProt:K4FQI5
- Protocol summary: Functional biochemical assay to identify treatments for viral infectious disease that targets West Nile NS2B-NS3 protease. Utilizing a direct enzyme activity measurement method, reading the fluorescence intensity is used to characterize the relative potency of inhibitors as IC50.
Quick note: pIC50 means taking -log10 of the concentration in moles per liter.

COCn1ncc2c(C(=O)Nc3ccc4c(c3)CNC4)cc(Cl)cc21 :: 5.43
O=C(Nc1ccc2c(c1)CNC2)c1cc(Cl)cc2ccccc12 :: 4.83
C=CC[C@H]1NCc2cc(N[C@H](C(=O)NCC(F)F)c3cc(Cl)cc(C4CC4)c3)ccc21 :: 6.54

Enquiry: Name the reported pIC50 value associated with the compound COc1cc(C#N)cc([C@H](Nc2ccc3c(c2)CNC3)C(=O)NCC(F)F)c1
Return: 6.61

Enquiry: Data request, read-out pIC50, for O=C(Nc1cc2c(cc1Br)CNC2)c1cc(F)cc2[nH]ncc12
Return: 5.90

====

Documented log10 of IC50 across a set of molecules
- Tested system: NS3 (West Nile virus)
- Protocol summary: Functional biochemical assay to identify treatments for viral infectious disease that targets West Nile NS2B-NS3 protease. Utilizing a direct enzyme activity measurement method, reading the fluorescence intensity is used to characterize the relative potency of inhibitors as IC50.
Please note: log10 values; quantity IC50; unit µM.

Consider the reported log10 of IC50 for these molecules:
O=C(Nc1ccc2c(c1)CNC2)c1cc(Cl)cc2cn[nH]c12 :: 0.89
Cn1cc(CCc2nc3c(C(=O)Nc4ccc5c(c4)CNC5)cc(Cl)cc3[nH]2)cn1 :: 1.65
O=C(Nc1ccc2c(c1)CNC2)c1cc(F)cc(-c2cnc(C3CC3)s2)c1 :: 0.30

Enquiry: For the molecule shown here, O=C(Nc1ccc2c(c1)CNC2)c1cc(Cl)cc2c1cnn2C[C@H]1CCCO1 , give the reported log10 of IC50.
Return: 0.78

Enquiry: What value of log10 of IC50 has been reported for the following molecule? O=C(Nc1cc(Cl)cc(C(=O)Nc2ccc3c(c2)CCNC3)c1)OCc1ccccc1
Return: 1.69

Enquiry: So what does the record say about log10 of IC50 for CC(=O)Nc1cc(Br)cc(C(=O)Nc2ccc3c(c2)CNC3)c1 ?
Return: 1.50

Enquiry: Endpoint output: log10 of IC50 of O=C(NCC(F)F)[C@H](Nc1ccc2c(c1)CNC2)c1cc(Cl)ccc1Cl . Value?
Return: 0.48

====

Each item that follows carries a reported pIC50.
- Tested system: NS3 (West Nile virus, UniProt K4FQI5)
- Protocol summary: Functional biochemical assay to identify treatments for viral infectious disease that targets West Nile NS2B-NS3 protease. Utilizing a direct enzyme activity measurement method, reading the fluorescence intensity is used to characterize the relative potency of inhibitors as IC50.
pIC50 (log units): -log10 of the concentration in mol/L.

Enquiry: GET /values?readout=pIC50&item= O=C(Nc1ccc2c(c1)CNC2)c1cccc2[nH]c(=O)[nH]c12
Return: 5.83

Enquiry: For the molecule shown here, O=C(Nc1ccc2c(c1)CNC2)c1cc(Br)cc2c1nc1n2CCCC1 , give the reported pIC50.
Return: 4.50

Enquiry: Give its pIC50 value. Item: O=C(Nc1ccc2c(c1)CNC2)c1cc(F)cc(C=C2CCS(=O)(=O)CC2)c1
Return: 4.84

Enquiry: Which value of pIC50 has been reported for O=C(Nc1ccc2c(c1)CNC2)c1cc(F)cc2[nH]c(CC[C@H]3CCCOC3)nc12 in the records?
Return: 5.42

Enquiry: What does the data say about its pIC50? Entry: O=C(Nc1ccc2c(c1)CNC2)c1cc(F)cc2[nH]c(-c3ccccc3F)nc12
Return: 5.62

Enquiry: Need pIC50 of NCc1cccc(NC(=O)c2cc(Cl)cc(CN)c2)c1 , thanks.
Return: 5.01

Enquiry: Which pIC50 value is on record for Cc1cccc(-c2nc3c(C(=O)Nc4ccc5c(c4)CNC5)cc(Cl)cc3[nH]2)c1O ?
Return: 4.76

Enquiry: Entry under review: O=C(Nc1ccc2c(c1)CNC2)c1cc(Cl)cc2nn(C3CCOCC3)cc12 . Reported pIC50?
Return: 4.85

Enquiry: Which value of pIC50 has been reported for CNC(=O)c1cccc(C(=O)Nc2ccc3c(c2)CNC3)c1 in the records?
Return: 4.43

Enquiry: Returns the measured pIC50 for the input molecule. Input: C=C[C@H]1NCc2cc(NC(=O)c3cc(F)cc4[nH]ncc34)ccc21
Return: 5.51

Enquiry: Consider the molecule shown here: O=C(NCC(F)F)[C@H](Nc1ccc2c(c1)CNC2)c1cccc(Cl)c1 What is its recorded pIC50?
Return: 6.32

Enquiry: # pIC50 lookup, item CC(C)c1nnc(-c2nc3c(C(=O)Nc4ccc5c(c4)CNC5)cc(F)cc3[nH]2)s1
Return: 4.93

Enquiry: Which measured pIC50 value corresponds to N=C(N)NCCc1ccc(NC(=O)Oc2ccccc2)cc1 ?
Return: 4.14

Enquiry: Record request: pIC50 value, item CS(=O)(=O)c1cc2c(cc1NC(=O)c1cc(F)cc3[nH]ncc13)CNC2
Return: 5.60

Enquiry: pIC50 for O=C(NCC(F)F)[C@H](Nc1ccc2c(c1)CNC2)c1cc(Cl)cc2[nH]ncc12 ?
Return: 5.58

Enquiry: Query: pIC50; subject: O=C(Nc1ccc2c(c1)CNC2)c1cc(F)cc2[nH]c(-c3ccc(F)cc3O)nc12
Return: 4.62
